System: OR10/OR7 (Anopheles gambiae, UniProt B5U0U7+Q7QCC7)
Sequence (Q7QCC7 whole entry): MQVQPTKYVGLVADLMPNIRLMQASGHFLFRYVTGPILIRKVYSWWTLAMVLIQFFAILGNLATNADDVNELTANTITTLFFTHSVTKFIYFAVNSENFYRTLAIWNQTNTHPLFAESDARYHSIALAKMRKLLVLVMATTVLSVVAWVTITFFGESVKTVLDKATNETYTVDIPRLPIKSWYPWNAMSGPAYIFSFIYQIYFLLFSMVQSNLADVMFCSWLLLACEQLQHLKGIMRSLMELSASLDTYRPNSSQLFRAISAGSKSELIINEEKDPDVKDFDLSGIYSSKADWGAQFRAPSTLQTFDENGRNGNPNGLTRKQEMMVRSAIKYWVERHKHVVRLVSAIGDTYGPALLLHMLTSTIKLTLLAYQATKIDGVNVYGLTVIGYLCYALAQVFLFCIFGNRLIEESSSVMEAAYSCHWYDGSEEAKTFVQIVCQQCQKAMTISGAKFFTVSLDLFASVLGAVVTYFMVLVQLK
Sequence (B5U0U7 entry or part of it): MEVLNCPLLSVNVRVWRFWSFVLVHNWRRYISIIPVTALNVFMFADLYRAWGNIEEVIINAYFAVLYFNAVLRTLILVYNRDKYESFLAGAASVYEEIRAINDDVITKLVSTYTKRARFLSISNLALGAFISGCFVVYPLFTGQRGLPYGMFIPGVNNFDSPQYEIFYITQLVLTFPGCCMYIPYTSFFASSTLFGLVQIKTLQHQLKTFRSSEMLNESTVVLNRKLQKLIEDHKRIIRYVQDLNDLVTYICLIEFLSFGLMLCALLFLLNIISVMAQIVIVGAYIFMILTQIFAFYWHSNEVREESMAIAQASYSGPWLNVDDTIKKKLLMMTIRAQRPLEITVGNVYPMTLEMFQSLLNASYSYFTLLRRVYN
Test Details: Ca2+-imaging of stable HEK293T cell line OR10/OR7
Type: cell-based
Conditions: Table B; read-out: IC50 OR10
Description: Stable cell lines OR1/OR7, OR2/OR7, OR8/OR7, OR10/OR7, OR28/OR7 and TRPM8 were generated from HEK293T cells. […] Stable cell lines were cultured in 10 cm dishes, and confluent cells (70-80%) were trypsinized. […] 20 μL of Ca-4 dye was loaded into each well for 1.5 hr at room temperature in the dark, and the dye-loaded plates were subjected to Ca^2+-imaging using a Hamamatsu FDSS6000 real time fluorescence plate reader. […]
Quantity Kind: IC50

Some entries whose results are on file:
>  <Molecule>
COc1ccc(C(=O)c2ccccc2)c(O)c1O

>  <IC50>
< 0.1 µM

$$$$
>  <Molecule>
Cc1ccc(CN(Cc2ccc(F)cc2)C(=O)CN(C(=O)NC(C)(C)C)C2CC2)s1

>  <IC50>
> 1 µM

$$$$
>  <Molecule>
Cc1ccccc1C(=O)N[C@@H]1CCCCC1NC(=O)C1CCN(C(=O)c2ccc(C(C)(C)C)cc2)CC1 (stereo partly drawn)

>  <IC50>
> 1 µM

$$$$
>  <Molecule>
Cc1c(C(=O)NCc2ccco2)cnn1-c1ccccc1

>  <IC50>
< 0.1 µM

$$$$

Here C=CCN(Cc1nccn1Cc1ccc(Cl)c(Cl)c1)C(=O)c1ccccc1F was tested on OR10/OR7 (Anopheles gambiae, UniProt B5U0U7+Q7QCC7), and its IC50 came to < 0.1 µM

Record for C=C[C@@](C)(O)CCC1C(=C)CCC2[C@@](C)(CO)CCC[C@]12C (stereo partly drawn) under target or system OR10/OR7 (Anopheles gambiae, UniProt B5U0U7+Q7QCC7): IC50 reported as > 1 µM

Let me check: CC(C)CN(Cc1nccn1Cc1c(F)cccc1Cl)C(=O)c1ccc(F)cc1 , system OR10/OR7 (Anopheles gambiae, UniProt B5U0U7+Q7QCC7), measured IC50 is < 0.1 µM

// IC50 (OR10/OR7 (Anopheles gambiae, UniProt B5U0U7+Q7QCC7)) for COc1cccc(-c2nnc(SCCCC(=O)N3CCN(C(=O)CC(C)(C)C)C(C)C3)n2-c2ccc(C)cc2)c1 (stereo not drawn) = > 1 µM

Entry O=C(C1CCC1)N(Cc1ccco1)Cc1nccn1Cc1ccccc1Cl under OR10/OR7 (Anopheles gambiae, UniProt B5U0U7+Q7QCC7) had IC50 of < 0.1 µM

###

System: serotonin receptor (5HT3) (Mus musculus)
Construct: Full-length cDNAs for mosquito (Anopheles gambiae) odorant receptor; expressed in transfected cells
Sequence (P23979 24-489): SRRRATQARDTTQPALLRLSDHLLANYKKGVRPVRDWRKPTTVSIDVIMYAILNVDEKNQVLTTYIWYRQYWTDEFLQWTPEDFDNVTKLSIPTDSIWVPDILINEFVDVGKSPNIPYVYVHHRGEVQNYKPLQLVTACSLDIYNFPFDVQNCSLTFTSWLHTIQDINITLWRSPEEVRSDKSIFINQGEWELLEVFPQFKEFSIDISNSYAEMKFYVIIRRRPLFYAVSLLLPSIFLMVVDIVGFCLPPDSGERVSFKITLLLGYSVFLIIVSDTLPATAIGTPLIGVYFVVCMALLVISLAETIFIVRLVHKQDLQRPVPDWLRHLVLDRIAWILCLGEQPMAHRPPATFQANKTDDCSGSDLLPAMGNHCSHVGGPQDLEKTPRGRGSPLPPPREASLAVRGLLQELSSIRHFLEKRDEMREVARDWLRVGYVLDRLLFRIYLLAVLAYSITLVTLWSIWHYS
Test Details: Ca2+-imaging of stable Flip-In T-Rex cell line 5HT3
Type: cell-based
Conditions: compound applied at 4 μM; read-out: Percent Inhibition 5HT3
inhibition at 4 µM reference

Below, each entry is followed by its recorded inhibition at 4 µM result.
>  <Molecule>
COc1ccc(C(=O)c2ccccc2)c(O)c1O

>  <inhibition at 4 µM>
26 to 50%

$$$$
>  <Molecule>
O=C(c1c(F)c(F)cc(F)c1F)N1CCOC(Cc2ccccc2)C1 (stereo not drawn)

>  <inhibition at 4 µM>
26 to 50%

$$$$
>  <Molecule>
COc1nc(OCC#N)nc(N2CCCCC2)n1

>  <inhibition at 4 µM>
26 to 50%

$$$$

Notebook: COCCNC(=O)c1ccc(CSc2nnc(-c3ccc(C)cc3)n2-c2ccccc2C)cc1 , inhibition at 4 µM read as < 25%

molecule Cc1cc(C)c(Cn2ccnc2CN(C(=O)c2ccccc2F)C(C)C)c(C)c1 , inhibition at 4 µM observed: < 25%
